System under test: CRF receptor (Rattus norvegicus)
Construct: 100 μl of membrane suspension as prepared above to give a total reaction volume of 300 μl; from tissue; host or cells: rat cerebral cortex membrane homogenate
Sequence (P35353 24-415): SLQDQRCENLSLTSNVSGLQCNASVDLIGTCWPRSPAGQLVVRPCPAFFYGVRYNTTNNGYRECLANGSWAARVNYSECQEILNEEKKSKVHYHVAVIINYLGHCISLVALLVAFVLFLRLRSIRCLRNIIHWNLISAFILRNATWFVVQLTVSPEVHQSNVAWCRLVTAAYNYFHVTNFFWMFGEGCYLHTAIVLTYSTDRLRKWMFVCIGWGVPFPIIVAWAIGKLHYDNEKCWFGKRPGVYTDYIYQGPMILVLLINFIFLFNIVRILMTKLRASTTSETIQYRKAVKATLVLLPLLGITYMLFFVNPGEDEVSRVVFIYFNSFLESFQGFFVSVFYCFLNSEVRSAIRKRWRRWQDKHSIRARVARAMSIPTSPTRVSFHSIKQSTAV
Assay protocol: In vitro CRF receptor binding assay (competition with [125I] ovine CRF, rat cortex membranes)
Measurement setup: competition with [125I] ovine CRF, 2 h at 22° C.; Ki classes; read-out: Inhibition Ki
# reported Ki; entries follow

Jot down Ki (CRF receptor (Rattus norvegicus)) of `CCN(c1nc(C)cc(C)n1)c1ccc(C(C)=NOC)cc1SC` .
< 0.5 µM

Jot down Ki (CRF receptor (Rattus norvegicus)) of `CCN(c1nc(C)cc(C)n1)c1ccc(C(C)=NOC)cc1S(C)(=O)=O` .
2 to 10 µM

Jot down Ki (CRF receptor (Rattus norvegicus)) of `CCN(c1nc(C)cc(C(=O)OC)n1)c1ccc(C(C)C)cc1Br` .
< 0.5 µM

Jot down Ki (CRF receptor (Rattus norvegicus)) of `CCSc1cc(C(C)=NOC)ccc1N(CC)c1nc(C)cc(C)n1` .
< 0.5 µM

Jot down Ki (CRF receptor (Rattus norvegicus)) of `CCN(c1nc(C)cc(C(=O)N2CCN(C)CC2)n1)c1ccc(C(C)C)cc1Br` .
2 to 10 µM

Jot down Ki (CRF receptor (Rattus norvegicus)) of `CCN(c1nc(C)cc(N2CCOCC2)n1)c1ccc(C(C)C)cc1Br` .
< 0.5 µM

Jot down Ki (CRF receptor (Rattus norvegicus)) of `CCN(c1nc(C)cc(C)n1)c1ccc(C(C)C)cc1OC` .
2 to 10 µM

Continue with the next compound.
Jot down Ki (CRF receptor (Rattus norvegicus)) of `CCN(c1nc(C)cc(CN2CCOCC2)n1)c1ccc(C(C)C)cc1Br` .
< 0.5 µM
